test system: ICK; conditions: concentration: 1 μM, replicates: in singlicate; n = 1;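 further: KINOMEscan kinase panel screen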
Measured quantity: %Inh (%)
Form entry: value (%) — number only.

COc1cc(Nc2nccc(-c3c(-c4cccc(NC(=O)c5c(F)cccc5F)c4)nn4ncccc34)n2)cc(OC)c1OC	4

Query Nc1ncc(-c2ccc3nccc(-c4ccncc4)c3c2)cc1S(=O)(=O)N1CCOCC1 yields %Inh of 36

Query COc1cc2c(cc1OCCN1CCNCC1)ncc1c3ccc(C#N)cc3[nH]c21 yields %Inh of 48

Query CC(C)(C)c1ccc2nccc(Nc3cccc(O)c3)c2c1 yields %Inh of 24

Query COc1cccc(-c2ccc3c(NC(=O)C4CC4)n[nH]c3n2)c1 yields %Inh of 23

Query Cc1occc1-c1ncc(OC[C@@H](N)Cc2c[nH]c3ccccc23)cc1-c1ccc2[nH]nc(C)c2c1.O=C(O)C(F)(F)F yields %Inh of 0

Hey, just so you know, these numbers are from paper PMC5540273.
